For each of the molecules below, state its DC50.
# Target or system: GSPT1 (Homo sapiens, UniProt P15170+Q96SW2)
# Sequence (P15170 whole entry): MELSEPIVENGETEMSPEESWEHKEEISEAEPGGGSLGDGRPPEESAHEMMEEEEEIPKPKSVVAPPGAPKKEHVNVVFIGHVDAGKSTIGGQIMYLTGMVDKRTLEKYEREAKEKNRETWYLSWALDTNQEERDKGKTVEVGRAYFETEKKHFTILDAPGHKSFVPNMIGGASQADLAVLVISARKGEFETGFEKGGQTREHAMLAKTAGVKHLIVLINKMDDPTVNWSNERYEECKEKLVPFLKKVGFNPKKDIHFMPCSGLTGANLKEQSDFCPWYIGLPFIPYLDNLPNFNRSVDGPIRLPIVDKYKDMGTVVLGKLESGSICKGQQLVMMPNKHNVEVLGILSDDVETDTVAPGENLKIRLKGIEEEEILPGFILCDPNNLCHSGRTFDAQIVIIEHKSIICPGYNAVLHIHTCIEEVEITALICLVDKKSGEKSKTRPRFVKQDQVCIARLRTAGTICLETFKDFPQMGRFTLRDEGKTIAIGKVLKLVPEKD
# Sequence (Q96SW2 whole entry): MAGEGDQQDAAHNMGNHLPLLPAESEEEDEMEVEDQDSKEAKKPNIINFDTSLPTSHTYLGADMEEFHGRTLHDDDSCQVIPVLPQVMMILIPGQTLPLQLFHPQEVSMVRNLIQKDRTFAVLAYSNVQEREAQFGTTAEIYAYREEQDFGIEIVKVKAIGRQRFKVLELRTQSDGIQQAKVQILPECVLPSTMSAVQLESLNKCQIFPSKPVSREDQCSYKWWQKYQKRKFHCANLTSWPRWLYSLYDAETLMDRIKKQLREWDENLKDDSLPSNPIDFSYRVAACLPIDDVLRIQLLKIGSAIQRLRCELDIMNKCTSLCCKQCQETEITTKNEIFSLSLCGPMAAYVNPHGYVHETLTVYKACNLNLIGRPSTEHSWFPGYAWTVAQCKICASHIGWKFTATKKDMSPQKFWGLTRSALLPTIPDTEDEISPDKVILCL
# Sequence (Q16531 2-1140 partner limits assumed): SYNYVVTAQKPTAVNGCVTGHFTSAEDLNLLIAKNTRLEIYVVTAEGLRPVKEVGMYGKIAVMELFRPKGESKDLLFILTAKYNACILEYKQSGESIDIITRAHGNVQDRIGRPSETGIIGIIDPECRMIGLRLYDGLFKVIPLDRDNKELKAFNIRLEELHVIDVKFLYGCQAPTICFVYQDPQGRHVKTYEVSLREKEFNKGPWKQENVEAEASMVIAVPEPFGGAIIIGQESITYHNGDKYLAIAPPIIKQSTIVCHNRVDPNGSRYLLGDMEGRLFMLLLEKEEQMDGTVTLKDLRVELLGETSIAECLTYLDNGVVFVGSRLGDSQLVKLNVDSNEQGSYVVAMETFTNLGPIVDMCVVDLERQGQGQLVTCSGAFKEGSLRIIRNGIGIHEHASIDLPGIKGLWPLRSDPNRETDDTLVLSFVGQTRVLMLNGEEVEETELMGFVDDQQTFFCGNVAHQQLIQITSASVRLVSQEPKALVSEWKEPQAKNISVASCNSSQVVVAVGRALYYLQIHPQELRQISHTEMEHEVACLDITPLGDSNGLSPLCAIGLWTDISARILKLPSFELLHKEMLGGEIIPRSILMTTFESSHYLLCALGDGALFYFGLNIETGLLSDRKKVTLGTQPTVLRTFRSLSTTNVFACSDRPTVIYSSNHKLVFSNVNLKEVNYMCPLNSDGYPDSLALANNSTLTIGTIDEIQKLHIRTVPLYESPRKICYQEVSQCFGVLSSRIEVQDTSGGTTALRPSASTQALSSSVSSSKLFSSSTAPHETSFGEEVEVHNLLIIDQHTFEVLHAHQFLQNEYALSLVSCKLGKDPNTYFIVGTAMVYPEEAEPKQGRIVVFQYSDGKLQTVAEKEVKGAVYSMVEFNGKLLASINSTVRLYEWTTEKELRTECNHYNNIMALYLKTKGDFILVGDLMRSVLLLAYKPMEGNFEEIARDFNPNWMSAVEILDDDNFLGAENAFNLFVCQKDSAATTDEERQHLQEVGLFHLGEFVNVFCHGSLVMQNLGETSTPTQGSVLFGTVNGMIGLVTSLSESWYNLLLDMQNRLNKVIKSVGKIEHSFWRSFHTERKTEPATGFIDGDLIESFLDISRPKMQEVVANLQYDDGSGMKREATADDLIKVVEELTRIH
# Assay: HiBiT degradation assay, 293T.114 cells, GSPT1
# Type: cell-based
# Run parameters: 293T.114 cells, 6 hours; read-out: HiBiT-Degradation 293T.114 GSPT1 6 hours DC50

input: So what DC50 did Cc1cc(C)nc(-c2ccc3c4c(cccc24)N(C2CCC(=O)NC2=O)C3=O)n1 (stereo not drawn) get with GSPT1 (Homo sapiens, UniProt P15170+Q96SW2)?
output: > 0.1 µM

input: Same lookup for CC(NC(=O)c1ccc2c3c(ccnc13)N(C1CCC(=O)NC1=O)C2=O)c1ccccc1 (stereo not drawn) , please.
output: > 0.1 µM

input: Same for O=C1CCC(N2C(=O)c3ccc(Br)c4cccc2c34)C(=O)N1 (stereo not drawn)
output: > 10 µM

input: Also CCOC(=O)c1cccc(Cc2ccc3c4c(cccc24)N(C2CCC(=O)NC2=O)C3=O)c1 (stereo not drawn) ?
output: > 10 µM

input: # repeat for CN1CC(c2ccc3c4c(cccc24)N(C2CCC(=O)NC2=O)C3=O)C1 (stereo not drawn)
output: > 0.1 µM

input: Also, CC1(n2cc(Cc3ccc4c5c(cccc35)C(=O)N4C3CCC(=O)NC3=O)cn2)CCN(C(=O)C2CC2)CC1 (stereo not drawn) please.
output: > 10 µM

input: Subsequent entry: CC1(n2cc(Cc3ccc4c5c(cccc35)C(=O)N4C3CCC(=O)NC3=O)cn2)CCN(C(=O)C2(C#N)CCCCC2)CC1 (stereo not drawn)
output: > 10 µM

input: Further, for Cc1ccc(CN2CCC(c3ccc4c5c(cccc35)N(C3CCC(=O)NC3=O)C4=O)CC2)cc1F (stereo not drawn) ?
output: > 10 µM

input: Please do the same for O=C1CCC(N2C(=O)c3ccc(CNC(=O)C(F)(F)c4ccc(Cl)cc4)c4cccc2c34)C(=O)N1 (stereo not drawn) as well.
output: > 10 µM

input: Ok, now COc1ncc(CN2CCC(c3ccc4c5c(cccc35)N(C3CCC(=O)NC3=O)C4=O)CC2)cn1 (stereo not drawn)
output: > 10 µM

input: Would you mind doing CC1(n2cc(Cc3ccc4c5c(cccc35)C(=O)N4C3CCC(=O)NC3=O)cn2)CCN(c2ncccc2F)CC1 (stereo not drawn) as well?
output: > 10 µM

input: What do you get for O=C1CCC(N2C(=O)c3ccc(CN4CC(Oc5ccccc5)C4)c4cccc2c34)C(=O)N1 (stereo not drawn) ?
output: < 0.1 µM

input: What do you get for CC1(C(=O)N2CCC(n3cc(Cc4ccc5c6c(cccc46)C(=O)N5[C@H]4CCC(=O)NC4=O)cn3)CC2)CCC1 ?
output: > 10 µM

input: Then O=C1CCC(N2C(=O)c3ccc(N4CCc5ccccc54)c4cccc2c34)C(=O)N1 (stereo not drawn) ?
output: > 10 µM

input: Another molecule to look at: CC(C)(C)OC(=O)N1CCC(n2cc(Cc3ccc4c5c(cccc35)C(=O)N4[C@H]3CCC(=O)NC3=O)cn2)CC1
output: > 10 µM

---

# Target or system: GSPT1 (Homo sapiens, UniProt P15170+Q96SW2)
# Assay: HiBiT degradation assay, 293T.114 cells, GSPT1
# Format: cell-based
# Run parameters: 293T.114 cells, 6 hours; read-out: HiBiT-Degradation 293T.114 GSPT1 6 hours DC50
# Experimental: GSPT1 degradation was determined based on quantification of luminescent signal using Nano-Glo® HiBiT Lytic Assay kit. Test compounds were added to the 384-well plate from a top concentration of 10 μM with 5 points, 3-fold titration in quadruplicates. 293T.114 cells were added into 384-well plates at a cell density of 6000 cells per well. […] Luminescence was acquired on EnVision™ Multilabel Reader (PerkinElmer, Santa Clara, CA, USA).
Answer each item with its documented DC50.

input: # get_value(readout='DC50', item= COC(=O)c1ccc(Nc2ccc3cccc4c3c2C(=O)N4C2CCC(=O)NC2=O)cc1 (centres unmarked) [Compound 186] )
output: > 10 µM

input: Same again, this time with O=C1CCC(N2C(=O)c3cccc4c(Cc5cnn(C6CCN(C(=O)C7(C(F)(F)F)CCC7)CC6)c5)ccc2c34)C(=O)N1 (centres unmarked) [Compound 201]
output: > 10 µM

input: Proceed to CCOC(=O)c1cc(Cc2ccc3c4c(cccc24)N(C2CCC(=O)NC2=O)C3=O)ccc1F (centres unmarked) [Compound 69]
output: > 10 µM

input: Entry to check: O=C1CCC(N2C(=O)c3ccc(C4(F)CCN(Cc5ccccc5)CC4)c4nccc2c34)C(=O)N1 (centres unmarked) [Compound 81]
output: > 0.1 µM

input: Next compound up: N#Cc1ccc(N2CCN(Cc3ccc(Cc4ccc5c6c(cccc46)C(=O)N5[C@H]4CCC(=O)NC4=O)cc3)CC2)c(F)c1 [Compound 78]
output: > 10 µM

input: Follow-up item: CN(c1ccc2c3c(cccc13)N(C1CCC(=O)NC1=O)C2=O)C1CCN(Cc2ccccc2)C1 (centres unmarked) [Compound 220]
output: > 0.1 µM

input: What about this compound? O=C1CCC(N2C(=O)c3cc(CNCc4ccco4)cc4cccc2c34)C(=O)N1 (centres unmarked) [Compound 160]
output: > 10 µM

input: Also CCOC(=O)c1ccc(Cc2ccc3c4c(cccc24)N(C2CCC(=O)NC2=O)C3=O)cc1 (centres unmarked) [Compound 61] , if possible.
output: > 10 µM
